B1: Homeobox protein SIX6, residues 134 to 184; numbered along this chain, O95475 (parent)
chain: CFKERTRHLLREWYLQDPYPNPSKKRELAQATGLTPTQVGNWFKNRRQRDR

Variants of: B1
Test: abundance fitness (aPCA) (normalised: wild type 0, dead -1); higher = more abundant; growth selection in yeast, the domain comes from the species named
Details: Homo sapiens
Classify by measured abundance fitness: satisfied if it is equal to or exceeds -0.2, not satisfied if it is smaller.

Worked set:
[[record]]
mutationname = "N21L"
label = "satisfied"

[[record]]
mutationname = "D50R"
label = "not satisfied"

[[record]]
mutationname = "E27M"
label = "not satisfied"

[[record]]
mutationname = "T37C"
label = "satisfied"

[[record]]
mutationname = "R46Y"
label = "not satisfied"


For this variant, is measured abundance fitness -0.2 or higher? E27A
not satisfied
